# system: T1, SXS (GST-SXL Sciara) (Sciara ocellaris, UniProt Q86QM9 1-287)
# T1 sequence: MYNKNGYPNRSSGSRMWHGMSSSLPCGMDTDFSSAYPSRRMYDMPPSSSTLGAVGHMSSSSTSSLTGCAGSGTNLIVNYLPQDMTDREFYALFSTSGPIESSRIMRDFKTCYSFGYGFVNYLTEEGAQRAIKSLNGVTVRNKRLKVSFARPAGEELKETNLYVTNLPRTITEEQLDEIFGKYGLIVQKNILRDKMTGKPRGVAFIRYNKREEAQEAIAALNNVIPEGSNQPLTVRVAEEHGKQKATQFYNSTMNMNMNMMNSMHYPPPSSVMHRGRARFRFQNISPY
# experiment_notes: EMSA; Hill n=1; error 95% CI; 20 mM Hepes pH 8.0, 0.1 M KCl, 0.5 mM EDTA, 1 mM DTT, 0.05% NP40, 20% glycerol, 3 µg yeast tRNA; 5 min on ice, then 10 min at room temperature with RNA; 5% native PAGE, 0.25x TBE
# condition_notes: protein: recombinant; tags: GST; label: fluorescein (RNA labelling mix)
pKd: −log10 of the molar value.

# binder, pKd
measured = [
    ("CAUGAUUAUUUUUUUUUAUUUUUUUUCGGUGA (ssRNA) [double poly(U) SXL site]", 6.52),
]
